Tgt: binding between IKKβ and full-length Regnase-1 (FL_Reg1) (Homo sapiens)
Construct: made in house; host or cells: Expi293 cells
Sequence (Q5D1E8 1-599): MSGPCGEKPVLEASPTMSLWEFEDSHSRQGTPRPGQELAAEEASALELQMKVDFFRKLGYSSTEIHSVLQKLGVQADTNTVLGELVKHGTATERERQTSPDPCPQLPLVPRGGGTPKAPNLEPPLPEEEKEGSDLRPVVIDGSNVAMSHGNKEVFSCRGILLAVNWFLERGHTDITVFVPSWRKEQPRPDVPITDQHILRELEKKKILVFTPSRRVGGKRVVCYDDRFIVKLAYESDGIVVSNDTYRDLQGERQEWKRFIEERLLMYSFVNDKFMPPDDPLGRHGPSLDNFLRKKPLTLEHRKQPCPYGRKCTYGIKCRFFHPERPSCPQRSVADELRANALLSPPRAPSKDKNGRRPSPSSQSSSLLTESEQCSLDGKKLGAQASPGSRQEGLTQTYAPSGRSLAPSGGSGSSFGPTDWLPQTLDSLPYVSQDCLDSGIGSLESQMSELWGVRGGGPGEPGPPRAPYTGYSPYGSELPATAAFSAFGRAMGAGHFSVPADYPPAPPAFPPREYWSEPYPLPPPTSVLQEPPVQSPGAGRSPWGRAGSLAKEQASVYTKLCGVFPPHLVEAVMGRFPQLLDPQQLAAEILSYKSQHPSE
Assay protocol: Inhibition of kinase-Regnase-1 binding by the compounds (AlphaScreen), IKKβ
Measurement setup: Table 12; 2.5 nM Regnase-1, 2.5 nM IKKβ; AlphaScreen; read-out: 50% inhibition concentration, binding between Regnase-1 and IKKβ, FL_Reg1
Residues, ends and D or L forms follow the SMILES beside them.

Compound	IC50 (µM)
CC[C@H](C)[C@@H]1NC(=O)[C@H](Cc2ccc(O)cc2)NC(=O)[C@H](C)N(C)C(=O)C[C@@H](C(=O)N2CCCC2)NC(=O)[C@H](CC(C)C)NC(=O)[C@H](CC(=O)O)NC(=O)CNC(=O)[C@H](Cc2ccccc2)NC(=O)[C@H](Cc2ccccc2)NC(=O)[C@H](CC(=O)O)NC(=O)[C@H](Cc2c[nH]c3ccccc23)NC1=O [PP4] (HELM PEPTIDE1{[meA].Y.I.W.D.F.F.G.D.L.D.[C1CCN([*:1])C1]}$PEPTIDE1,PEPTIDE1,1:R1-11:R3$$$V2.0)	47.7
CC[C@H](C)[C@@H]1NC(=O)[C@H](CCCNC(=N)N)NC(=O)[C@H](Cc2ccc(O)cc2)NC(=O)[C@H](Cc2c[nH]c3ccccc23)NC(=O)[C@H](C)NC(=O)[C@H](CO)NC(=O)[C@H](C)NC(=O)[C@H](Cc2c[nH]cn2)NC(=O)[C@H](CCCCN)NC(=O)[C@@H](C)N(C)C(=O)C[C@@H](C(=O)N2CCCC2)NC(=O)[C@H](Cc2c[nH]c3ccccc23)NC1=O [PP3] (HELM PEPTIDE1{[C[C@H](C(=O)[*:2])N(C)[*:1]].K.H.A.S.A.W.Y.R.I.W.D.[C1CCN([*:1])C1]}$PEPTIDE1,PEPTIDE1,1:R1-12:R3$$$V2.0)	8.3
